# assay.details: Pharmacokinetics after oral administration, plasma by LC/MS/MS, dog
# Assay type: in vivo
# test.context: plasma, oral, 2 mg/kg (as salt), 0.5% methylcellulose in water
recorded.metric: AUC(0-t) (ng·h/mL)
Give the number; ng·h/mL is assumed, so skip it.

# get_value(readout='AUC(0-t)', item= CN[C@H](CNC(=O)N1CCC[C@@H]([C@@H](OCCNC(=O)OC)c2cccc(Cl)c2)C1)C[C@H]1CCCOC1 [Mucate] ) 895

----------
# assay.details: Pharmacokinetics after oral administration, plasma by LC/MS/MS, monkey
# Type: in vivo
# test.context: plasma, oral, 3 mg/kg (as salt), 0.5% methylcellulose in water
# Experimental: IV formulations were prepared in 1% DMSO in sterile saline. PO formulations were prepared in 0.5% methylcellulose in water, unless otherwise indicated. After compound administration, plasma samples were obtained through 24 hours post-dosing from each animal using K2EDTA as the anticoagulant. Plasma samples were treated with two volumes of acetonitrile containing an internal standard (ritanserin). […] Ten microliters of the supernatant was analyzed using LC/MS/MS.
recorded.metric: Cmax (ng/mL)
Field: numeric (ng/mL). Do not append units.

Entry CN[C@H](CNC(=O)N1CCC[C@@H]([C@@H](OCCNC(=O)OC)c2cccc(Cl)c2)C1)C[C@H]1CCCOC1 [Mucate] has what Cmax? 266

----------
Property: Cmax; scope: individual molecules
# assay.details: Pharmacokinetics after oral administration, plasma by LC/MS/MS, rat
# Assay type: in vivo
# test.context: plasma, oral, 10 mg/kg (as salt), 0.5% methylcellulose in water

1) CN[C@H](CNC(=O)N1CCC[C@@H]([C@@H](OCCNC(=O)OC)c2cccc(Cl)c2)C1)C[C@H]1CCCOC1.O=C(O)/C=C/C(=O)O [Fumarate] ... 156 ng/mL

Field: next molecule
For the molecule CN[C@H](CNC(=O)N1CCC[C@@H]([C@@H](OCCNC(=O)OC)c2cccc(Cl)c2)C1)C[C@H]1CCCOC1 [Mucate] , what Cmax is on record? 238 ng/mL

----------
# assay.details: Pharmacokinetics after oral administration, plasma by LC/MS/MS, rat
# Type: in vivo
# test.context: plasma, oral, 10 mg/kg (as salt), 0.5% methylcellulose in water, read-out: AUC0-t
recorded.metric: AUC(0-t) (ng·h/mL)
Quick note: give the figure in ng·h/mL, leave out the unit.

Entry CN[C@H](CNC(=O)N1CCC[C@@H]([C@@H](OCCNC(=O)OC)c2cccc(Cl)c2)C1)C[C@H]1CCCOC1 [Mucate] : reported AUC(0-t) = ? 681
